All figures here come from patent US20080044360A1.

This section presents binders with their documented % bound values.
- tested-system: T1, rat collagen, acid soluble, type I, rat tail (Upstate 08-115) (rat, UniProt P02454 152-1207; P02466 86-1125)
- T1 construct: tissue extract, gelled and dried in wells; also called dried rat collagen
- T1 sequence (P02454 152-1207, chain 1 of 2): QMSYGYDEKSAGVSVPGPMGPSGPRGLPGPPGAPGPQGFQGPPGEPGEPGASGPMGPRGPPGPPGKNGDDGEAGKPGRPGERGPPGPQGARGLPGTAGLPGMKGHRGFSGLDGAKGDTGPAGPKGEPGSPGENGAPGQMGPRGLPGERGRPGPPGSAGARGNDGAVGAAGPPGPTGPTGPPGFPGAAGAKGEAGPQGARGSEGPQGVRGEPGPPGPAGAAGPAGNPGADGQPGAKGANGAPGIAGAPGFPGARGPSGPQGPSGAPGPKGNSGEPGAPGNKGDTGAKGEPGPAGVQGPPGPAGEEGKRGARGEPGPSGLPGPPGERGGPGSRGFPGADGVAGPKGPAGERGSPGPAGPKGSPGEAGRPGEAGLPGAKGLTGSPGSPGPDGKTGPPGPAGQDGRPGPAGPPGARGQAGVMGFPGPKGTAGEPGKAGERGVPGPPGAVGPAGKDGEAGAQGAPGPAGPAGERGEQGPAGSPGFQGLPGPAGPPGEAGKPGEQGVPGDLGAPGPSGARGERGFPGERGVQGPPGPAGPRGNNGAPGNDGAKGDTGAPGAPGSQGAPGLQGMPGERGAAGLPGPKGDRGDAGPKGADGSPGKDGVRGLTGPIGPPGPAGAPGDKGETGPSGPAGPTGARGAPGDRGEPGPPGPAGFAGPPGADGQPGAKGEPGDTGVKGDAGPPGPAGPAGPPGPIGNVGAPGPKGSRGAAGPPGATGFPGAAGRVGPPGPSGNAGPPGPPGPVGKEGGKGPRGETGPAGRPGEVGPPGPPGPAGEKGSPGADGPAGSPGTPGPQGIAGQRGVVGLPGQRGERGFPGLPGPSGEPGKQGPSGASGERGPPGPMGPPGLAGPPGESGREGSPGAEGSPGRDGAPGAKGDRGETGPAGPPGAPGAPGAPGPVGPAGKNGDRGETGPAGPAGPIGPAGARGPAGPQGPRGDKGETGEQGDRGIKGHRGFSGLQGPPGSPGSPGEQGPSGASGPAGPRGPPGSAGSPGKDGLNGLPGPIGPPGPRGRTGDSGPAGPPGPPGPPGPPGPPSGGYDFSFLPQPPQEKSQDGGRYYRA
- T1 sequence (P02466 86-1125, chain 2 of 2): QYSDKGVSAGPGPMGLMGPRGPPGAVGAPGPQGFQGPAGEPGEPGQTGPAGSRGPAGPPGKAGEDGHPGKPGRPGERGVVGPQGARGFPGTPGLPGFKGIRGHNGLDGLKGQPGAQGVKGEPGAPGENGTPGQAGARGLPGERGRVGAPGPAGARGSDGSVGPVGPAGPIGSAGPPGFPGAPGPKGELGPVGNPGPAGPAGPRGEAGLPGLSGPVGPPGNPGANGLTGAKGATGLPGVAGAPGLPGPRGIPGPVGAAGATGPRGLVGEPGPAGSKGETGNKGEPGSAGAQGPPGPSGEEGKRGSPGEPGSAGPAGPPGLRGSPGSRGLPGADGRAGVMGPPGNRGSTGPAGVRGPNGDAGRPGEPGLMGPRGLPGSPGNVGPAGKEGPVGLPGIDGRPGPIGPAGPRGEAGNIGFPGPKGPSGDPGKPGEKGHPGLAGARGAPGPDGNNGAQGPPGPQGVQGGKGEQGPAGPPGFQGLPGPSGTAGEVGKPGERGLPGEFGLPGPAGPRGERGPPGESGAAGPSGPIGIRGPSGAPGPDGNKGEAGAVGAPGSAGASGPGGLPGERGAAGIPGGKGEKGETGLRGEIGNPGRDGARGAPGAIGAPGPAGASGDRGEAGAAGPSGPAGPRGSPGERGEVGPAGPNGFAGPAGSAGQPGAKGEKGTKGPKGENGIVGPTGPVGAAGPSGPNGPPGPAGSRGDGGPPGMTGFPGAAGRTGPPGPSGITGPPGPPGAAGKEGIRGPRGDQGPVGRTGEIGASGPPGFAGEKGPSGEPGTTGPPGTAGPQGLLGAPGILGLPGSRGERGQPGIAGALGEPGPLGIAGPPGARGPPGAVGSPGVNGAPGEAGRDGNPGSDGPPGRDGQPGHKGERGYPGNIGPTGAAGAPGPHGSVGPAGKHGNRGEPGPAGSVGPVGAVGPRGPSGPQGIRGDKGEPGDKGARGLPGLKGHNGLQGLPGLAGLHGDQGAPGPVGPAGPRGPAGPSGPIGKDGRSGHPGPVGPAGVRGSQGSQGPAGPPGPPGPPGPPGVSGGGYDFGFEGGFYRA
- method-summary: dried collagen assay
Bridge positions count the residues as written; N and C are the ends. Square brackets hold non-standard residues; d marks the D form. Primed or numbered codes have the meaning given here. Side chains are listed from the residue outwards. Ends that are not written are not given here. Gd^D = GdDOTAGA (gadolinium DOTAGA chelate); Bip = N[C@@H](Cc1ccc(-c2ccccc2)cc1)C(=O)O; Dab = NCC[C@H](N)C(=O)O; Gd^G = not defined here; Gd^T″ = GdDTPA-thiourea
Note: a bare number is incomplete; add the unit.

These recorded examples may help you get a feel for the data.
binder	% bound
{Gd^G}-GQWTCSGDEYTWHCNY (disulfide 5-14 (inferred); not fully specified (C-terminus); reading uncertain) [Compound ID 823]	28%
{Gd^D}-GK([Gly-Gd^D])WHCTTK(Gd^D)FPHHYCLY[Bip] (disulfide 5-14) [Compound ID 1001]	81%

[ask] So what does the record say about % bound for {Gd^T″}-GK([Gly-Gd^T″])WHCYT[Dab](Gd^T″)FPHHYCVY[Bip] (disulfide 5-14) [Compound ID 1005] ?
[reply] 95%
